test system: Thromboxane-A synthase (Oryctolagus cuniculus); experiment: Tested in vitro against rabbit thromboxane A2 synthetase (TXA2) at 1 uM
Use criterion met when the recorded inhibition is no lower than 90%; use criterion not met when it is lower.

Prompt: API: above_or_equal(metric=inhibition, cutoff=90%) for item O=C(c1cccs1)n1nc(-c2cccnc2)c2ccccc2c1=O
Response: criterion not met

Prompt: Hello, I need to know if CCn1nc(-n2ccnc2)c2ccccc2c1=O has measured inhibition not below 90%. Thanks!
Response: criterion not met

Prompt: I'd appreciate it if you could say whether CCOC(=O)CCCn1nc(-c2cccnc2)c2ccccc2c1=O has inhibition at least equal to 90%.
Response: criterion met

Prompt: Has O=C(O)c1ccc(Cn2nc(-c3cccnc3)c3ccccc3c2=O)cc1 a recorded inhibition greater than or equal to 90%?
Response: criterion not met

Prompt: Hello, I need to know if O=c1c2ccccc2c(-c2cccnc2)nn1CCO has measured inhibition not below 90%. Thanks!
Response: criterion not met

Prompt: Check if inhibition >= 90% (inclusive). Item: CC(C)=CCn1nc(-c2cccnc2)c2ccccc2c1=O
Response: criterion met

Prompt: Is reported inhibition greater than or equal to 90% here: CCn1nc(-c2cccnc2)c2ccccc2c1=O
Response: criterion not met

Prompt: Check the entry CCn1nc(-c2cnccn2)c2ccccc2c1=O : does inhibition equal or exceed 90%?
Response: criterion not met

Prompt: Kindly determine if inhibition recorded for CCn1nc(-c2cncs2)c2ccccc2c1=O is above or exactly 90%.
Response: criterion not met

Prompt: Record O=c1c2ccccc2c(-c2cccnc2)nn1CCn1cnnn1 ; criterion: inhibition no lower than 90%. Met?
Response: criterion not met

Prompt: Hello, I need to know if Cn1nc(-c2cccnc2)c2ccccc2c1=O has measured inhibition not below 90%. Thanks!
Response: criterion not met

Prompt: I'd appreciate it if you could say whether Oc1nnc(-c2cncs2)c2ccccc12 has inhibition at least equal to 90%.
Response: criterion not met

Prompt: Would you say CC(=O)Cn1nc(-c2cccnc2)c2ccccc2c1=O shows inhibition at minimum 90%?
Response: criterion not met

Prompt: Check this molecule for inhibition at or above 90%: O=C(O)Cn1nc(-c2cccnc2)c2ccccc2c1=O
Response: criterion not met

Prompt: Given O=c1c2ccccc2c(-c2cccnc2)nn1Cc1cccc(Cl)c1 , state whether its inhibition is at least 90%.
Response: criterion met

Prompt: Dear colleague, could you confirm whether Oc1nnc(-c2cccnc2)c2ccccc12 has inhibition at or above 90%?
Response: criterion not met

Prompt: Is reported inhibition greater than or equal to 90% here: CCn1nc(-c2nccs2)c2ccccc2c1=O
Response: criterion not met

Prompt: In plain terms: is recorded inhibition at least 90% for O=c1c2ccccc2c(-c2cccnc2)nn1S(=O)(=O)c1ccccc1 ?
Response: criterion met

Prompt: Form field: inhibition at least 90%? Entry: CCOC(=O)Cn1nc(-c2cccnc2)c2ccccc2c1=O
Response: criterion not met

Prompt: Evaluate O=c1c2ccccc2c(-c2cccnc2)nn1Cc1ccccc1 : inhibition at minimum 90%?
Response: criterion met

Prompt: Could you tell me if the measured inhibition of CC(=O)OCCn1nc(-c2cccnc2)c2ccccc2c1=O reaches 90% or more?
Response: criterion not met

Prompt: Does CCn1nc(-n2cncn2)c2ccccc2c1=O have a reported inhibition of at least 90%?
Response: criterion not met

Prompt: Say whether NCCn1nc(-c2cccnc2)c2ccccc2c1=O shows inhibition of 90% or more.
Response: criterion not met

Prompt: Hi, just wondering whether O=c1c2ccccc2c(-c2cccnc2)nn1CC1CCCCC1 shows inhibition of 90% or higher.
Response: criterion met
